From: PubChem BioAssay (EPA / NIEHS)

assay-name: APR_HepG2_CellLoss_72hr: Apredica 72-hour HepG2 Assay for Cell Loss (AID 2282915)
condition: high-content imaging
Active and inactive are the calls of the source. Rule for the calls: active = hit-call score of the fitted dose curve at least 0.9, where 1 is the maximum; inactive = score below 0.9.
Classes used: label 1 (active), label 0 (inactive)

compound | category-label
CN(C)CCO | label 0
ClC1=C(Cl)[C@]2(Cl)[C@@H]3[C@H]4C[C@H]([C@@H]5O[C@H]45)[C@@H]3[C@@]1(Cl)C2(Cl)Cl | label 0
O=S(=O)(O)C(F)(F)C(F)(F)C(F)(F)C(F)(F)F | label 0
O=C(NC(=O)c1c(F)cccc1F)Nc1cc(Cl)c(OC(F)(F)C(F)F)c(Cl)c1 | label 0
O=NN(c1ccccc1)c1ccccc1 | label 0
CCC(=O)O[C@H]1CC[C@H]2[C@@H]3CCC4=CC(=O)CC[C@]4(C)[C@H]3CC[C@]12C | label 1
O=C(O)C(F)(F)C(F)(F)C(F)(F)C(F)(F)C(F)(F)C(F)(F)C(F)(F)C(F)(F)F | label 1
c1ccc(-c2ccccc2)cc1 | label 0
CC(C)(O)C(=O)Nc1ccc([N+](=O)[O-])c(C(F)(F)F)c1 | label 0
Cc1ccccc1[N+](=O)[O-] | label 0
Cc1cccc([N+](=O)[O-])c1 | label 0
CCCCCCCCCc1ccc(O)cc1 | label 0
O=C(NC(=O)c1cc(F)c(F)cc1Cl)Nc1cc(F)ccc1N1CCC(C(=O)O)CC1 | label 0
Clc1ccc(C(c2ccccc2Cl)C(Cl)(Cl)Cl)cc1 (centres undefined) | label 1
Oc1ccc(C(c2ccc(O)cc2)(C(F)(F)F)C(F)(F)F)cc1 | label 1
CN(C)c1nc(=O)n(C2CCCCC2)c(=O)n1C | label 0
O=C(N[C@H]1CN2CCC1CC2)c1cc2ccoc2cn1 | label 0
CCOC(=O)C(O)(c1ccc(Cl)cc1)c1ccc(Cl)cc1 | label 1
O=S(=O)(O)C(F)(F)C(F)(F)C(F)(F)C(F)(F)C(F)(F)C(F)(F)F | label 0
CCC(C)c1cc([N+](=O)[O-])cc([N+](=O)[O-])c1O (centres undefined) | label 1
ClC(Cl)=C(c1ccc(Cl)cc1)c1ccc(Cl)cc1 | label 1
Cc1ccccc1O | label 0
CCCCCCOC(=O)c1ccccc1C(=O)OCCCCCC | label 1
C1CC2OC2CC1C1CO1 (centres undefined) | label 0
CC(C)(c1ccccc1)c1ccc(O)cc1 | label 1
CCNc1nc(NC(C)C)nc(SC)n1 | label 0
ClC1=C(Cl)[C@]2(Cl)[C@@H]3[C@@H]4C[C@@H]([C@H]5O[C@@H]45)[C@@H]3[C@@]1(Cl)C2(Cl)Cl | label 1
Nc1ccc(-c2ccc(N)cc2)cc1 | label 0
C[C@]12CCC(=O)C=C1CC[C@@H]1[C@@H]2CC[C@@]2(C)[C@H]1CC[C@]2(C)O | label 0
COS(=O)(=O)OC | label 0
C=CC(=O)NCNC(=O)C=C | label 0
Cc1ccc(O)c(C)c1 | label 0
CC(c1ccc(O)cc1)(c1ccc(O)cc1)c1ccc(O)cc1 | label 1
Clc1ccc(Cl)cc1 | label 0
Cc1ccccc1CO[C@@H]1C[C@@]2(C(C)C)CC[C@]1(C)O2 | label 0
CCC(C)(CC)c1cc(NC(=O)c2c(OC)cccc2OC)on1 | label 1
O=C(O)C(F)(F)C(F)(F)C(F)(F)C(F)(F)C(F)(F)C(F)(F)C(F)(F)C(F)(F)C(F)(F)F | label 1
CCCCCCCCOC(=O)c1ccccc1C(=O)OCCCCCCCC | label 0
Cc1cc(-c2ccc(N)c(C)c2)ccc1N | label 0

====

Read-out: Lipoprotein lipase (LPL), LPL (gene 4023)
assay-name: LTEA_HepaRG_LPL: Life Technologies and Expression Analysis (LTEA) Assay for Lipoprotein lipase (LPL) using HepaRG (AID 2283515)
condition: mRNA level, 48 h; actives raise or lower the signal
Activity calls are given as the source filed them. Rule for the calls: active = hit-call score of the fitted dose curve at least 0.9, where 1 is the maximum; inactive = score below 0.9.
Classes used: T (active), F (inactive)

smiles-text | category-label
Clc1ccc(C(Cl)(Cl)Cl)cc1 | F
C=CC(N)=O | F
CC(c1ccc(O)cc1)(c1ccc(O)cc1)c1ccc(O)cc1 | T
Oc1ccc(C(c2ccc(O)cc2)(C(F)(F)F)C(F)(F)F)cc1 | T
N#Cc1ccc(N(CC(N)=O)CC(F)(F)F)cc1C(F)(F)F | F
ClC1=C(Cl)[C@]2(Cl)[C@@H]3[C@H]4C[C@H]([C@@H]5O[C@H]45)[C@@H]3[C@@]1(Cl)C2(Cl)Cl | F
Cc1ccccc1O | F
ClC1=C(Cl)[C@]2(Cl)[C@@H]3[C@@H](Cl)[C@H]4O[C@H]4[C@@H]3C1(Cl)C2(Cl)Cl | F
CN(C)c1nc(=O)n(C2CCCCC2)c(=O)n1C | F
ClC(Cl)=C(c1ccc(Cl)cc1)c1ccc(Cl)cc1 | F
CCOC(=O)C(O)(c1ccc(Cl)cc1)c1ccc(Cl)cc1 | T
c1ccc(-c2ccccc2)cc1 | F

====

assay-name: ATG_ERE_CIS: Attagene CIS-FACTORIAL HepG2 Assay for Estrogen Response Element (ERE) (AID 2282940)
condition: HepG2 ERE cis-reporter, Attagene RNA transcript; actives raise or lower the signal
Activity calls are given as the source filed them. Rule for the calls: active = hit-call score of the fitted dose curve at least 0.9, where 1 is the maximum; inactive = score below 0.9.
observable: AC50

molecule | value-measured
CCCCCCCCCC[N+](C)(C)CCCCCCCCCC | inactive
Nn1cnnc1 | 39.5 µM (active)
Oc1ccc(Cl)cc1Cl | 75.9 µM (active)
CC#Cc1cc(C)nc(Nc2ccccc2)n1 | inactive
C=CC(N)=O | inactive
CCCCCCCCOC(=O)c1ccccc1C(=O)OCCCCCCCC | inactive
CC(C)(O)C(=O)Nc1ccc([N+](=O)[O-])c(C(F)(F)F)c1 | inactive
O=NN(c1ccccc1)c1ccccc1 | 26.1 µM (active)
CCOC(=O)C(O)(c1ccc(Cl)cc1)c1ccc(Cl)cc1 | 2.98 µM (active)
CCSC(=O)N(CC)C1CCCCC1 | inactive
Cc1cccc([N+](=O)[O-])c1 | inactive
COc1ccc(O)c(C(C)(C)C)c1 | inactive
CC(C)(c1ccccc1)c1ccc(O)cc1 | 435 nM (active) [middle of 4 runs]
O=C(N[C@H]1CN2CCC1CC2)c1cc2ccoc2cn1 | inactive
CN(C)c1nc(=O)n(C2CCCCC2)c(=O)n1C | inactive
CCC(C)(c1ccc(O)cc1)c1ccc(O)cc1 | 198 nM (active) [middle of 4 runs]
O=S(=O)(O)C(F)(F)C(F)(F)C(F)(F)C(F)(F)F | inactive
CCCN(CCC)N=O | 46.4 µM (active)
Cc1ccccc1O | inactive
Oc1ccc(C(c2ccc(O)cc2)(C(F)(F)F)C(F)(F)F)cc1 | 127 nM (active) [middle of 4 runs]
CCCCCCOC(=O)c1ccccc1C(=O)OCCCCCC | 4.15 µM (active)
C1CC2OC2CC1C1CO1 (stereo not drawn) | inactive
Cc1ccccc1[N+](=O)[O-] | inactive

====

Read-out: TIMP1, TIMP1 (gene 7076)
assay-name: LTEA_HepaRG_TIMP1: Life Technologies and Expression Analysis (LTEA) Assay for TIMP1 using HepaRG (AID 2283534);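 for Outcome: TaqMan qRT-PCR signal normalized to ACTB GAPDH and POLR2A housekeeping genes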
condition: mRNA level, 48 h; actives raise or lower the signal
Calls of active or inactive are those of the source. The calls were made as follows: active = hit-call score of the fitted dose curve at least 0.9, where 1 is the maximum; inactive = score below 0.9.
Outcome codes: active, inactive

compound | category-label
O=C(O)C(F)(F)C(F)(F)C(F)(F)C(F)(F)C(F)(F)C(F)(F)C(F)(F)C(F)(F)F | inactive
CCC(=O)O[C@H]1CC[C@H]2[C@@H]3CCC4=CC(=O)CC[C@]4(C)[C@H]3CC[C@]12C | inactive
Nn1cnnc1 | inactive
Cc1ccc(O)c(C)c1 | inactive
Clc1ccc(Cl)cc1 | inactive
C=CC(=O)NCNC(=O)C=C | inactive
O=C(O)C(F)(F)C(F)(F)C(F)(F)C(F)(F)C(F)(F)C(F)(F)C(F)(F)C(F)(F)C(F)(F)F | active
Cc1cc(O)ccc1Cl | inactive
Oc1c(Cl)c(Cl)c(Cl)c(Cl)c1Cl | active
O=C(O)C(F)(F)C(F)(F)C(F)(F)C(F)(F)C(F)(F)F | inactive
O=C(N[C@H]1CN2CCC1CC2)c1cc2ccoc2cn1 | inactive
Cc1ccccc1O | inactive
O=C(NC(=O)c1cc(F)c(F)cc1Cl)Nc1cc(F)ccc1N1CCC(C(=O)O)CC1 | inactive
CN(C)CCO | inactive
NS(=O)(=O)C(F)(F)C(F)(F)C(F)(F)C(F)(F)C(F)(F)C(F)(F)C(F)(F)C(F)(F)F | active
Clc1ccc(C(c2ccccc2Cl)C(Cl)(Cl)Cl)cc1 (configuration not stated) | inactive
O=S(=O)(O)C(F)(F)C(F)(F)C(F)(F)C(F)(F)F | inactive

====

assay-name: BSK_LPS_SRB: Viability Assessment in the BioMAP Diversity Plus: LPS Assay (AID 2283079);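 note: total protein by sulforhodamine B absorbance as a cytotoxicity measure; measured one day after compound addition; fitted in both directions against DMSO so loss or gain of signal counts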
condition: primary human HUVEC with PBMC
Activity calls are given as the source filed them. How the source made its calls: active means hit-call score of the fitted dose curve at least 0.9, where 1 is the maximum; inactive means score below 0.9.
Outcomes: 1 (yes) for active, 0 (no) for inactive

molecule | category-label
CC#Cc1cc(C)nc(Nc2ccccc2)n1 | 0 (no)
O=C(NC(=O)c1cc(F)c(F)cc1Cl)Nc1cc(F)ccc1N1CCC(C(=O)O)CC1 | 0 (no)
C=CC(=O)NCNC(=O)C=C | 0 (no)
CCCCCCCCCC[N+](C)(C)CCCCCCCCCC | 1 (yes)
CC(C)(c1ccccc1)c1ccc(O)cc1 | 1 (yes)
C1CC2OC2CC1C1CO1 (centres undefined) | 0 (no)
CCOCCOC(C)=O | 0 (no)
C=CC(N)=O | 0 (no)
N#Cc1ccc(N(CC(N)=O)CC(F)(F)F)cc1C(F)(F)F | 0 (no)
Cc1ccccc1O | 0 (no)
c1ccc(-c2ccccc2)cc1 | 0 (no)
O=NN(c1ccccc1)c1ccccc1 | 0 (no)
Cc1ccccc1[N+](=O)[O-] | 0 (no)
Clc1ccc(Cl)cc1 | 0 (no)
CCNc1nc(NC(C)C)nc(SC)n1 | 0 (no)
Cc1ccccc1CO[C@@H]1C[C@@]2(C(C)C)CC[C@]1(C)O2 | 0 (no)
Cc1cc2c3c(c1)C(c1ccccc1)=N[C@@H](NC(=O)c1ccncc1)C(=O)N3CC2 | 0 (no)
Cc1ccc(O)c(C)c1 | 0 (no)
Oc1ccc(C(c2ccc(O)cc2)(C(F)(F)F)C(F)(F)F)cc1 | 1 (yes)
CCCCCCCCOC(=O)c1ccccc1C(=O)OCCCCCCCC | 0 (no)
CCCN(CCC)N=O | 0 (no)
CCCCCCOC(=O)c1ccccc1C(=O)OCCCCCC | 0 (no)
c1cc2ccc3cccc4ccc(c1)c2c34 | 0 (no)
Sc1ccccc1 | 0 (no)
